These data points were gathered from ChEMBL document CHEMBL4513216.

Test: Toxicity liver stage against HepG2, at 10uM
Assay type: cell-based
Design: test concentration 10 uM, cell line HepG2-A16-CD81EGFP
Settings: human, HepG2-A16-CD81EGFP cells; read-out: INHIBITION
Readout Kind: cytotoxicity at 10 µM (%)

INSERT INTO measurements (compound, endpoint_result) VALUES
  ('Fc1cnc(N2CCn3cc(CNc4ccccn4)nc3C2)nc1', -0.665),
  ('CCn1cnnc1C1CCN(C(=O)c2cc(C)n(CC)c2C)CC1', -6.08),
  ('Cc1nc(O)c2nnn(C[C@H]3CCCN3C(=O)c3ccc(F)cc3)c2n1', -4.28),
  ('O=C(CS(=O)(=O)CC1CCCCC1)NC1CCCCNC1=O (stereo unspecified)', -10.6),
  ('O=S(=O)(NCCn1ccc(-c2ccccn2)n1)C1CCCCC1', 8.63),
  ('Cn1ccnc1CN1CCN(Cc2cc(C#N)ccc2F)CC1', -4.52);

====

Test: Toxicity liver stage against HepG2, at 10uM
Assay type: cell-based
Set-up: test concentration 10 uM, cell line HepG2-A16-CD81EGFP
Settings: human, HepG2-A16-CD81EGFP cells; read-out: INHIBITION
Readout Kind: cytotoxicity at 10 µM (%)

INSERT INTO assay_data (compound, result_unit, endpoint_result) VALUES
  ('O=C1CCCN1CCc1noc(-c2ccc(Cl)cc2)n1', '%', 7.9),
  ('CCc1ccc(C(=O)N2CCN(Cc3ccc(F)cc3)CC2)s1', '%', 13.4),
  ('Cc1c(NCc2cccc(C#N)c2)cccc1S(=O)(=O)NC1CC1', '%', 42.5),
  ('CC(C)c1nnc(CNc2ccc(SC(F)(F)F)cc2)o1', '%', 11.5),
  ('CC(C(N)=O)n1nc(-c2cccs2)cc(N)c1=O (stereo unspecified)', '%', 6.44),
  ('O=C(NCc1nnc2ccccn12)N1CCOC(c2ccsc2)C1 (stereo unspecified)', '%', 0.305);

====

Test: Toxicity liver stage against HepG2, at 10uM
Format: cell-based
Set-up: test concentration 10 uM, cell line HepG2-A16-CD81EGFP
Details: human, HepG2-A16-CD81EGFP cells; read-out: INHIBITION
Readout Kind: cytotoxicity at 10 µM (%)

INSERT INTO results (molecule, endpoint_result) VALUES
  ('CS(=O)(=O)c1ccc(CNC(=O)NCc2cc[nH]n2)cc1', 1.22),
  ('Cc1ccc(CN2C[C@@H]3[C@@H](C(=O)N4CCCC4)CCS(=O)(=O)[C@@H]3C2)cc1', 0.411),
  ('Cc1cc(C2CCCN2C(=O)CN2CCc3ccccc32)on1 (configuration not stated)', 2.74),
  ('CCCC(C)(O)c1cc(C(N)=O)no1 (configuration not stated)', -5.4),
  ('Cc1ccsc1C(=O)Nc1cc(Br)c(=O)n(C)c1', -15.1),
  ('Cc1noc(-c2ccc(N(C)Cc3ccncc3C)nc2)n1', -15.1),
  ('c1cc(CNc2cnc(C3CCCN3)cn2)ccn1 (configuration not stated)', -6.77),
  ('Cc1nc(Nc2cnccn2)cc(C2CCCN2)n1 (configuration not stated)', -9.46),
  ('COc1ccc(S(=O)(=O)N2Cc3c(CN(C)C)nn(C)c3C2)cc1', 3.94),
  ('Nc1nccnc1CC1CCCN(Cc2ccnc3ccccc23)C1 (configuration not stated)', 24.7),
  ('CC(C)NC(=O)N1CCC2(CC1)NC(=O)CC2c1ccncc1 (configuration not stated)', -2.94),
  ('CCOc1ncccc1NC(=O)NCC(O)c1ccccc1OC (configuration not stated)', -8.36),
  ('Cn1cc(CN2CCCC23CCN(c2nc4ccccc4s2)CC3)cn1', 4.86),
  ('Cc1nc(C)n(CC2CCCN2CCC(=O)NC2CCCC2)n1 (configuration not stated)', -10.4),
  ('O=C(c1ccc(O)c(Cl)c1)N1CCC(c2n[nH]c(C3CC3)n2)CC1', 6.91),
  ('COc1cccc(C2c3c(n[nH]c3C)N=C3COC(=O)C32)c1O (configuration not stated)', 65.8),
  ('O=C(NCC1CCC(c2ccnc3ncnn23)CC1)c1ccccn1 (configuration not stated)', 3.64),
  ('COc1ccc(Cl)cc1S(=O)(=O)N1C[C@H]2CC[C@@H](C1)N(C)C2=O', 3.98),
  ('N#Cc1cccnc1N1CCCN(C(=O)CCn2cccn2)CC1', 2.81),
  ('CC(NC(=O)Nc1nccs1)c1ccncc1 (configuration not stated)', -9.98),
  ('CC(C)COCC1CN(Cc2ccc3c(c2)OCO3)Cc2ncn(C)c21 (configuration not stated)', -10.7),
  ('Cn1ccc(C(=O)Nc2nccn2Cc2ccccc2Cl)cc1=O', -1.92),
  ('C=C(C)CN1CCCC(NS(C)(=O)=O)C1 (configuration not stated)', 4.21),
  ('CS(=O)(=O)c1cnc(CC2CC2)nc1C1CCCNC1 (configuration not stated)', -33.5),
  ('Cc1cccc(N(CCC(N)=O)CC(=O)Nc2cc(Cl)ccc2Cl)c1', 11.3),
  ('CN(C)C(=O)[C@@H]1CCO[C@@H]2CCN(c3ncccn3)C[C@@H]21', 8.31),
  ('CCc1nnsc1C(=O)NCCCC(CC)(CC)C1OCCO1', 5.95),
  ('COc1c(F)cc(CN2CCC3(CC2)C(C(=O)O)CC(=O)N3C)cc1Cl (configuration not stated)', 5.13),
  ('O=C(c1cnc(C2CC2)nc1)N1CCC(N2CCC(O)CC2)CC1', 2.33),
  ('CN1CCCC(c2cccc(CCC(N)=O)n2)C1 (configuration not stated)', 2.9),
  ('Cc1cnn(CC2CCCN2Cc2cc(C)on2)c1 (configuration not stated)', -8.51),
  ('COc1ccc(C(=O)N2CCO[C@H]3[C@H](OCC4CC4)CC[C@@H]32)cc1F', 18.2),
  ('Oc1cc(C2CCCN(Cc3cccs3)C2)nc(-c2ccccn2)n1 (configuration not stated)', 29.5),
  ('CC(C)C(Sc1cccs1)C(=O)NCc1cccnc1 (configuration not stated)', -5.15),
  ('CCOC(=O)CNC(=O)NCc1cc(C)n(-c2ccc(OC)cc2)c1C', 8.27),
  ('Cc1ccc(F)cc1CC(=O)N(CCN1CCOCC1)Cc1ccco1', -3.91),
  ('CC[C@H](C)Nc1nccc(-c2cnc3sc(C)c(C)n3c2=O)n1', 11.1),
  ('Cc1cccc(CN2C[C@@H]3COC[C@]3(CNC(=O)C3CC3)C2)c1', -107),
  ('N#Cc1cccnc1N1CCC(c2nc(C(F)(F)F)c[nH]2)CC1', 2.74),
  ('Cc1nc2sccn2c1CNC1(c2ccccc2F)CCCC1', 11.3),
  ('CN(Cc1ccc(F)cc1)C(=O)CN1CCOC(Cn2cccn2)C1 (configuration not stated)', 2.2),
  ('Cc1cccc(OC2CCN(c3ncc(C#N)cc3Cl)CC2)n1', 8.13),
  ('Cc1ccccc1OCC(=O)N1CCOC2(CNCCOC2)C1 (configuration not stated)', -2.96),
  ('O=C(COCc1ccccc1Cl)N1CCN(c2ccc(Br)cn2)CC1', 46.6),
  ('O=C(c1ccco1)N1C[C@H]2CCCN(Cc3cccs3)[C@H]2C1', 5.71),
  ('O=C(c1ccnnc1)N1C[C@@H]2OCCN(CCN3CCCC3)[C@@H]2C1', 4.22),
  ('CC(=O)N1CCc2nc(N(C)C)nc(NCCc3ccccc3)c2CC1', -2.38);
